Consider the following molecules; for each one, report its Ca.
species: Rattus norvegicus; test: Open TG-GATES - Regimen: Daily Repeat; assay type: toxicity, organism-based, Sprague-Dawley; set-up: regimen Daily Repeat, gender Male, age 6 weeks; details: in vivo, po, 300 mg/kg, […], tissue Plasma, route gavage, dose level Middle, time 28 day
Respond with the bare value in mg/dL.

Entry CC(S)C(=O)NCC(=O)O (centres undefined) has what Ca?
10.9

Field request: Ca | item: O=C(O)c1ccccc1Nc1ccccc1
11.3

// returns reported Ca for input CC(=O)[C@@]1(O)CC[C@H]2[C@@H]3C=C(Cl)C4=CC(=O)CC[C@]4(C)[C@H]3CC[C@@]21C
10.6

Quick check: Ca of CCCCNC(=O)NS(=O)(=O)c1ccc(C)cc1 [TOLBUTAMIDE] ?
10.7

* * *

Give Cl for every item shown.
organism: Rattus norvegicus; assay: Open TG-GATES - Regimen: Daily Repeat; type: toxicity, organism-based, Sprague-Dawley; design: regimen Daily Repeat, gender Male, age 6 weeks; conditions: in vivo, po, 0 mg/kg, 72 h, tissue Plasma, route gavage, dose level Control, time 3 day
Record the result as a number with its unit.

Give its Cl value. Item: CC(=O)[C@@]1(O)CC[C@H]2[C@@H]3C=C(Cl)C4=CC(=O)CC[C@]4(C)[C@H]3CC[C@@]21C
105.8 meq/L

Item under review: CCCCC1C(=O)N(c2ccccc2)N(c2ccccc2)C1=O . Reported Cl?
105 meq/L

Any idea what Cl was measured for CC(S)C(=O)NCC(=O)O (stereo not given) ?
106 meq/L

// Cl lookup, key: CCCCNC(=O)NS(=O)(=O)c1ccc(C)cc1 [TOLBUTAMIDE]
105.2 meq/L

GET /values?readout=Cl&item= O=C(O)c1ccccc1Nc1ccccc1
106.8 meq/L

Cl lookup needed for Nc1ccc(Cc2ccc(N)cc2)cc1 , thanks.
105.4 meq/L

Fill in the blank: the reported Cl of O=c1ccc2ccccc2o1 is ____.
104.8 meq/L

Query: Cl; subject: CN(CCOc1ccc(CC2SC(=O)NC2=O)cc1)c1ccccn1.O=C(O)/C=C\C(=O)O (stereo not given) [ROSIGLITAZONE MALEATE]
104.2 meq/L

Using the record for CCO , report its Cl.
104.2 meq/L

What Cl value was documented for this molecule, CN(C/C=C/C#CC(C)(C)C)Cc1cccc2ccccc12 ?
103.4 meq/L

* * *

For each record, write down the corresponding LIVER.
species on record: Rattus norvegicus; experiment: Open TG-GATES - Regimen: Daily Repeat; type: toxicity, organism-based, Sprague-Dawley; design: regimen Daily Repeat, gender Male, age 6 weeks; conditions: in vivo, po, 1000 mg/kg, […], tissue Liver, route gavage, dose level High, time 7 day
Give just the number in g; leave the unit off.

// LIVER lookup, key: CC(S)C(=O)NCC(=O)O (centres undefined) [TIOPRONIN]
12.3

Which LIVER value is on record for CCCCNC(=O)NS(=O)(=O)c1ccc(C)cc1 [TOLBUTAMIDE] ?
12.3

For the compound CC(=O)[C@@]1(O)CC[C@H]2[C@@H]3C=C(Cl)C4=CC(=O)CC[C@]4(C)[C@H]3CC[C@@]21C [CHLORMADINONE] , what LIVER is on record?
11

Entry under review: O=C(O)c1ccccc1Nc1ccccc1 [FENAMIC ACID] . Reported LIVER?
12.5

* * *

Assign Plat to each entry below.
species: Rattus norvegicus; experiment: Open TG-GATES - Regimen: Daily Repeat; type: toxicity, organism-based, Sprague-Dawley; parameters: regimen Daily Repeat, gender Male, age 6 weeks; conditions: in vivo, po, 1000 mg/kg, […], tissue Blood, route gavage, dose level High, time 28 day
Quick note: give the figure in x10_4/uL, leave out the unit.

Looking for the measured Plat of CC(S)C(=O)NCC(=O)O (centres undefined) [TIOPRONIN] , can you help?
98.3

Query: Plat; subject: O=C(O)c1ccccc1Nc1ccccc1 [FENAMIC ACID]
139.6

Which Plat reading was recorded for the molecule CCCCNC(=O)NS(=O)(=O)c1ccc(C)cc1 [TOLBUTAMIDE] ?
102.5

Request the reported Plat associated with CC(=O)[C@@]1(O)CC[C@H]2[C@@H]3C=C(Cl)C4=CC(=O)CC[C@]4(C)[C@H]3CC[C@@]21C [CHLORMADINONE]
91.7

* * *

species on record: Rattus norvegicus; experiment: Open TG-GATES - Regimen: Daily Repeat; format: toxicity, organism-based, Sprague-Dawley; set-up: regimen Daily Repeat, gender Male, age 6 weeks; conditions: in vivo, po, 1000 mg/kg, […], tissue Liver, route gavage, dose level High, time 14 day
For each of the compounds below, state its LIVER.

For the compound CC(=O)[C@@]1(O)CC[C@H]2[C@@H]3C=C(Cl)C4=CC(=O)CC[C@]4(C)[C@H]3CC[C@@]21C , what LIVER is on record?
13.1 g

// returns reported LIVER for input CCCCNC(=O)NS(=O)(=O)c1ccc(C)cc1 [TOLBUTAMIDE]
15 g

Fill in: LIVER of O=C(O)c1ccccc1Nc1ccccc1 is ___
13.5 g

LIVER for CC(S)C(=O)NCC(=O)O (centres undefined) ?
13.3 g

* * *

Please respond with reported Mono for every item in the list.
species: Rattus norvegicus; experiment: Open TG-GATES - Regimen: Daily Repeat; type: toxicity, organism-based, Sprague-Dawley; parameters: regimen Daily Repeat, gender Male, age 6 weeks; conditions: in vivo, po, 1000 mg/kg, […], tissue Blood, route gavage, dose level High, time 28 day
Numbers only; they are read as %.

Name the recorded Mono for CCCCNC(=O)NS(=O)(=O)c1ccc(C)cc1 [TOLBUTAMIDE] .
2

// returns reported Mono for input O=C(O)c1ccccc1Nc1ccccc1
2.5

Reported Mono, compound CC(=O)[C@@]1(O)CC[C@H]2[C@@H]3C=C(Cl)C4=CC(=O)CC[C@]4(C)[C@H]3CC[C@@]21C : ____
2.2

State the recorded Mono for this entry: CC(S)C(=O)NCC(=O)O (centres undefined)
1.8

* * *

species on record: Rattus norvegicus; assay: Open TG-GATES - Regimen: Daily Repeat; type: toxicity, organism-based, Sprague-Dawley; parameters: regimen Daily Repeat, gender Male, age 6 weeks; details: in vivo, po, 300 mg/kg, […], tissue Blood, route gavage, dose level Middle, time 28 day
QUANTITY MEASURED: Eos

// query Eos value for entry O=C(O)c1ccccc1Nc1ccccc1
1.4%

State the recorded Eos for this entry: CCCCNC(=O)NS(=O)(=O)c1ccc(C)cc1 [TOLBUTAMIDE]
1%

Recorded Eos of CC(S)C(=O)NCC(=O)O (centres undefined) , please.
1%

For the compound shown here, CC(=O)[C@@]1(O)CC[C@H]2[C@@H]3C=C(Cl)C4=CC(=O)CC[C@]4(C)[C@H]3CC[C@@]21C , give the reported Eos.
1%

* * *

species: Rattus norvegicus; test: Open TG-GATES - Regimen: Daily Repeat; type: toxicity, organism-based, Sprague-Dawley; design: regimen Daily Repeat, gender Male, age 6 weeks; conditions: in vivo, po, 0 mg/kg, […], tissue Plasma, route gavage, dose level Control, time 14 day
QUANTITY MEASURED: AST (IU/L)
The answer is to be given in IU/L; state only the numeric part.

Report AST for O=C(O)c1ccccc1Nc1ccccc1 please.
63.2

Need AST of CCCCNC(=O)NS(=O)(=O)c1ccc(C)cc1 [TOLBUTAMIDE] , thanks.
66.4

Name the recorded AST for Nc1ccc(Cc2ccc(N)cc2)cc1 .
58.6

Can you share its AST? I mean this molecule: CC(=O)[C@@]1(O)CC[C@H]2[C@@H]3C=C(Cl)C4=CC(=O)CC[C@]4(C)[C@H]3CC[C@@]21C
64.6

Quick one: AST for COc1ccc([C@@H]2Sc3ccccc3N(CCN(C)C)C(=O)[C@@H]2OC(C)=O)cc1 ?
65.6

Given the entry CN(CCOc1ccc(CC2SC(=O)NC2=O)cc1)c1ccccn1.O=C(O)/C=C\C(=O)O (centres undefined) [ROSIGLITAZONE MALEATE] , report its measured AST.
62.4

Recorded AST for CCCCC1C(=O)N(c2ccccc2)N(c2ccccc2)C1=O , please?
57.8

Dear colleague, I am looking for the recorded AST of the following molecule: O=c1ccc2ccccc2o1
59

Find the recorded AST belonging to NS(=O)(=O)c1cc(C(=O)O)c(NCc2ccco2)cc1Cl [FUROSEMIDE] and report it.
64.6

* * *

species on record: Rattus norvegicus; test: Open TG-GATES - Regimen: Daily Repeat; type: toxicity, organism-based, Sprague-Dawley; design: regimen Daily Repeat, gender Male, age 6 weeks; details: in vivo, po, 1000 mg/kg, […], tissue Blood, route gavage, dose level High, time 28 day
QUANTITY MEASURED: RBC (x10_4/ul)
Output spec: scalar in x10_4/ul, unitless text.

Bench note: what RBC did O=C(O)c1ccccc1Nc1ccccc1 [FENAMIC ACID] show?
626

Reported RBC for CC(=O)[C@@]1(O)CC[C@H]2[C@@H]3C=C(Cl)C4=CC(=O)CC[C@]4(C)[C@H]3CC[C@@]21C [CHLORMADINONE] : what is it?
873

Which RBC reading was recorded for the compound CCCCNC(=O)NS(=O)(=O)c1ccc(C)cc1 [TOLBUTAMIDE] ?
808.8

What does the data say about its RBC? Entry: CC(S)C(=O)NCC(=O)O (centres undefined) [TIOPRONIN]
781.4
